Please provide measured Papp at 18 hours, 50 µM for the entries that follow.
# experiment summary: PAMPA (parallel artificial membrane permeability assay)
# Assay type: in vitro ADME
# experimental parameters: PAMPA, pH 6.5
Positions of bridges follow the written chain, without caps; N, C: chain ends. Non-standard residues stand in square brackets, D forms with d. Residues, ends and D or L forms follow the SMILES beside them. *: point of attachment. NMeF = CN[C@@H](Cc1ccccc1)C(=O)O; NMeI = CC[C@H](C)[C@H](NC)C(=O)O; NMeL = CN[C@@H](CC(C)C)C(=O)O; NMeV = CN[C@H](C(=O)O)C(C)C; NMeA = CN[C@@H](C)C(=O)O; Piperidide = C1CCN(*)CC1; dNMeA = CN[C@H](C)C(=O)O; β3hA = C[C@H](N)CC(=O)O; Sar = CNCC(=O)O; tBu = CC(C)(C)*
Answers are plain numbers, in ×10⁻⁶ cm/s.

Guide cases for Papp at 18 hours, 50 µM, answers given:
compound	reported result
CC[C@H](C)[C@H]1C(=O)NCC(=O)N[C@@H](C)CC(=O)N(C)[C@H](C)C(=O)N[C@@H](Cc2ccccc2)C(=O)N(C)[C@@H](CC(C)C)C(=O)N[C@@H](COC(C)(C)C)C(=O)N[C@@H](Cc2ccccc2)C(=O)N2CCC[C@H]2C(=O)N[C@@H]([C@@H](C)O)C(=O)N[C@@H](CC(C)C)C(=O)N1C [DP-815] (cyclo(F[NMeL]S(tBu)FPTL[NMeI]G[β3hA][dNMeA]))	42
CC(C)C[C@H]1C(=O)N2CCC[C@H]2C(=O)N(C)[C@@H](CC(C)C)C(=O)N[C@@H](C)C(=O)N(C)[C@@H](C(C)C)C(=O)N[C@H](C(=O)N2CCCCC2)CC(=O)N(C)[C@@H](C)C(=O)N[C@@H]([C@@H](C)O)C(=O)N(C)CC(=O)N(C)[C@@H](Cc2ccccc2)C(=O)N(C)[C@@H](Cc2ccccc2)C(=O)N1C [DP-67] ([NMeA]T[Sar][NMeF][NMeF][NMeL]P[NMeL]A[NMeV]D-Piperidide; lactam N-11)	23

The recorded Papp at 18 hours, 50 µM for entry CC(C)C[C@H]1C(=O)N(C)[C@@H](Cc2ccccc2)C(=O)N(C)[C@@H](C)C(=O)N[C@@H](Cc2ccccc2)C(=O)N[C@H](C(=O)N(C)[C@@H](Cc2ccccc2)C(=O)N[C@@H](C)C(=O)N2CCCCC2)CC(=O)N(C)CC(=O)N[C@@H]([C@@H](C)O)C(=O)N(C)CC(=O)N[C@@H](C(C)C)C(=O)N1C [DP-316] ([Sar]T[Sar]V[NMeL][NMeF][NMeA]FD[NMeF]A-Piperidide; lactam N-9) equals 12
